log10(koff) reference
biological target: T1, recombinant RSV-F protein (RSV A2 strain fusion (F) protein with added His tag) (human respiratory syncytial virus, A2 …, UniProt P03420 26-524); test: SPR (Biacore), antibody captured, RSV-F as analyte
T1 construct: also called RSV-F recombinant protein
T1 sequence (P03420 26-109, chain 1 of 2): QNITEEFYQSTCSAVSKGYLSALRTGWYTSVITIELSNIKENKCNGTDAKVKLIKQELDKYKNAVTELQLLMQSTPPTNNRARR
T1 sequence (P03420 137-524, chain 2 of 2): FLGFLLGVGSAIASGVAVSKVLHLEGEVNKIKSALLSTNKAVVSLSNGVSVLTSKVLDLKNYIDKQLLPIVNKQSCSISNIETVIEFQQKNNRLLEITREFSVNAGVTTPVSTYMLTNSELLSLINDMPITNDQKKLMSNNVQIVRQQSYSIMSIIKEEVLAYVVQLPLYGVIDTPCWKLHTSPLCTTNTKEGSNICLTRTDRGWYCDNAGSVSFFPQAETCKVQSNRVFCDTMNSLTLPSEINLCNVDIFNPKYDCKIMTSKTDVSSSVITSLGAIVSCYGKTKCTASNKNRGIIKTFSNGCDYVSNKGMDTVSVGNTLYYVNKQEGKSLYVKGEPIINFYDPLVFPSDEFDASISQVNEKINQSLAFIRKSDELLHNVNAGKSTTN
Values are log10 of koff in s⁻¹.

Please report log10(koff) for the following binder: R3-38B6QH (antibody, human IgG1, kappa, V domains shown, also called chimeric antibody of R3-38B6) VH: QVQLEESGPELVKPGASVKISCKASGYAFSSSWMNWVKQRPGQGLEWIGRIYPGDGDTQYHGKVKGKATLTADKSSSTAYMQVSSLTSVDSAVYFCAREGGMITSNGYYHALDYWGQGTSVTVSS VL: DIVMTQTTASLAVSQGQRATISCSASESVDSYGNSFMNWYQQKPGQPPKVLIYLASNLESGVPARFSGSGSRTDFTLTIDPVEADDAATYYCQQNNEDPTFGGGTKLEIKR
-4.52

Please report log10(koff) for the following binder: R3-16A10QH (antibody, human IgG1, kappa, V domains shown, also called chimeric antibody of R3-16A10) VH: EVKLEESGPELVKPGASVKISCKTSGYAFSDSWMNWVKQRPGQGLEWIGRIYPGDGDTQYNGKVKGKATLTADKSSSTAYMQVSSLTSVDSAVYFCAREGGMITSSGYYHALDYWGQGTSVTVSS VL: DIVMTQSPASLAVSLGQRTTISCRASESVDSYGNSFLNWYQQKPGQPPKVLIYLASNLESGVPARFSGSGSRTDFTLIIDPVEADDAATYYCQQNNEDPTFGGGTKLEIKR
-4.57

Please report log10(koff) for the following binder: R18-11B1QH (antibody, human IgG1, kappa, V domains shown, also called chimeric antibody of R18-11B1) VH: EVQLEESGPELVKPGASVKISCKSSAQTFSGSWINWVKQRPGQGLEWIGRIFPGDGDTKYNMNFTGKATLTADKSSNTAYMHVSSLTSVDSAVYFCARYDGYYDIGYFDVWGAGTTVTVSS VL: DIVMTQTPASLAVSLGQRATISCRASASVDSYGNKFIHWYQQKPGQPPKLLISLASNLESGVPARFSGSGSRTDFTLTIDPVEADDAATYYCQQTNEDPWTFGGGTKLEIKR
-3.77

Please report log10(koff) for the following binder: R10-10B2QH (antibody, human IgG1, kappa, V domains shown, also called chimeric antibody of R10-10B2) VH: QVQLEESGAELVRSGASVKLSCTASGFNIKDYYIHWVKQRPEQGLEWIGWNDPENGDTEYAPKFQGKATMTADTSSNTVYLQLSSLTSEDSAVYFCKSFDSYLEYWGQGTSVTVSS VL: DIVMTQTTLSLPVNLGDQASISCRSSQSLVHTDGNTFLEWYLQRPGQSPKLLIYKVSIRFSGVPDRFSGSGSGTDFTLKISRVETEDLGVYYCFQGSHVPRTFGGGTKLEIKR
-4.43

Then there is this binder:
Please report log10(koff) for the following binder: R1-11C3QH (antibody, human IgG1, kappa, V domains shown, also called chimeric antibody of R1-11C3) VH: EVQLEESGAELVRSGASVKLSCTASGFNIKDYYMHWVKQRPEQGLEWIGWIDPENGDTEYAPKFQGKATLTADTSSNTAYLQLSTLTSEDNAVYYCNAAYYGDYVEDMDYWGQGTSVTVSS VL: DIVMTQTPLSLSVSLGDQASISCRSSQSIVHSDGNTFLEWYLQKPGQSPKLLIYKVSNRFSGVPDRFSGSGSGTDFTLKISRVEAEDLGVYYCFQASHLPRTFGGGTKLEIKR
-4.85

The reported numbers originate from patent US20250026815A1.
